Target: human recombinant adrenergic α2A receptor (Homo sapiens)
Construct: expressed in transfected cells; host or cells: insect Sf9 cells
Sequence (P08913 1-465): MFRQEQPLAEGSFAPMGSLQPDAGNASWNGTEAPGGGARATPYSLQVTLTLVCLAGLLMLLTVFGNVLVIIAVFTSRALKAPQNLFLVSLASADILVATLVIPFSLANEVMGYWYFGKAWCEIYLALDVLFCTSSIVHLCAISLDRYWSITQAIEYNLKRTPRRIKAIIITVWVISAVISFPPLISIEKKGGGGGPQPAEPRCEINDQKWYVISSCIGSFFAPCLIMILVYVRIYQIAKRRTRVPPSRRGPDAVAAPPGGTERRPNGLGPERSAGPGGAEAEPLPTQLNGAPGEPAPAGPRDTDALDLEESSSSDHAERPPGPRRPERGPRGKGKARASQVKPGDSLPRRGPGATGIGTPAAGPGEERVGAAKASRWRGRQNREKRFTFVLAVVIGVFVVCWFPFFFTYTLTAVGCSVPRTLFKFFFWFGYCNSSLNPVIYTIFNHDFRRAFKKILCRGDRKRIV
Experiment: Radioligand binding, adrenergic α2A ([3H]MK-912)
Conditions: compound at 0.1 μM; [3H]MK-912; repeat assays, each datapoint shown; read-out: Percentage inhibition of ligand binding, Adrenergic α2A
Label false if inhibition at 0.1 µM falls below 10%; label true in every other case.

Consider the following illustrative entries.
C/C(=C/n1c2c(c3cc(C)ccc31)CN(C)CC2)c1cn[nH]c1 [compound 80]    true
OC(Cn1c2c(c3cc(Cl)ccc31)CNCC2)c1ccncc1 (single isomer, unassigned) [10a]    false
Cc1ccc2c(c1)c1c(n2CCc2ccc(C(F)(F)F)nc2)CCN(C)C1 [compound 86]    true

**Query** Hi, just wondering whether Cc1ccc2c(c1)c1c(n2/C=C/c2ccncc2)CCNC1 [compound 79] shows inhibition at 0.1 µM of 10% or higher.
**Result** true

**Query** hey, is inhibition at 0.1 µM for this one >= 10%? CN1CCc2c(c3cc(Cl)ccc3n2CC(O)c2ccncc2)C1 (single isomer, unassigned) [4a]
**Result** true

**Query** Decide: is the reported value of inhibition at 0.1 µM for Cc1cnc2c(c1)c1c(n2CCc2ccc(C)nc2)CCN2CCCC12 (single isomer, unassigned) [74a] equal to or greater than 10%?
**Result** true

**Query** Exam item: decide whether the reported inhibition at 0.1 µM for Cc1ccc2c(c1)c1c(n2CC(O)c2ccncc2)CCNC1 (single isomer, unassigned) [39a] is at least 10%.
**Result** true
